Where do the numbers come from? From ChEMBL document CHEMBL2169792.

Test: Cytotoxicity against human prostate cancer cells after 48 hrs by SRB assay
Type: functional
Conditions: Cancer cell lines
log10(LC50) overview
Remember, log10 of LC50, in µM.

Reference set, count: 5
[
  {
    "COMPOUND": "COc1ccc(C2=NN(C3=NC(=O)/C(=C4\\C(=O)Nc5ccc(Cl)cc54)S3)C(c3ccc(OC)cc3)C2)cc1 (configuration not stated)",
    "log10(LC50)": 2.00
  },
  {
    "COMPOUND": "CN(C)c1ccc(C2CC(c3ccccc3)=NN2C2=NC(=O)/C(=C3\\C(=O)Nc4ccc(Br)cc43)S2)cc1 (configuration not stated)",
    "log10(LC50)": 1.74
  },
  {
    "COMPOUND": "COc1ccc(C2=NN(C3=NC(=O)/C(=C4\\C(=O)Nc5ccccc54)S3)C(c3ccc(OC)cc3)C2)cc1 (configuration not stated)",
    "log10(LC50)": 2.00
  },
  {
    "COMPOUND": "COc1ccc(C2CC(c3ccc4ccccc4c3)=NN2C2=NC(=O)/C(=C3\\C(=O)Nc4ccccc43)S2)cc1 (configuration not stated)",
    "log10(LC50)": 2.00
  },
  {
    "COMPOUND": "COc1ccc(C2=NN(C3=NC(=O)/C(=C4\\C(=O)Nc5ccc(Br)cc54)S3)C(c3ccc(Cl)cc3)C2)cc1 (configuration not stated)",
    "log10(LC50)": 2.00
  }
]

The recorded log10(LC50) for CN(C)c1ccc(-c2cc(-c3ccccc3)nn2C2C(=O)Nc3ccccc32)cc1 (configuration not stated) is 2.00

The recorded log10(LC50) for O=C1N=C(N2N=C(c3ccc4ccccc4c3)CC2c2ccc(Cl)cc2)S/C1=C1/C(=O)Nc2ccccc21 (configuration not stated) is 2.00

The recorded log10(LC50) for COc1ccc(C2=NN(C3=NC(=O)/C(=C4\C(=O)Nc5ccc(Br)cc54)S3)C(c3ccc(OC)cc3)C2)cc1 (configuration not stated) is 2.00
